# SYSTEM NAME: cAMP-dependent protein kinase catalytic subunit PRKX (Homo sapiens) (UniProt P51817);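 also: each value is the mean percent inhibition of the kinase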
# Sequence (P51817 whole entry): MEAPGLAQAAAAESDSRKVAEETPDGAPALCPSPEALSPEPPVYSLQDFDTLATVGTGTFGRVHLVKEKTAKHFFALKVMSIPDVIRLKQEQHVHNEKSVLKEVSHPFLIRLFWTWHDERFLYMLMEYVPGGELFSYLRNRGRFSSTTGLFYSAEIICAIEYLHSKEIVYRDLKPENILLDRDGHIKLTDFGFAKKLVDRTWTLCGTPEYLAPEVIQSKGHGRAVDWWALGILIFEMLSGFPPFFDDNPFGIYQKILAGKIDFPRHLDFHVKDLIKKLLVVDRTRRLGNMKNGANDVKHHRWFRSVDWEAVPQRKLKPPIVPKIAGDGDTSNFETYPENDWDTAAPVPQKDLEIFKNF
# TEST PARAMETERS: at 1 µM
inhibition reference
Output spec: scalar in %, unitless text.

Worked examples, 5 molecules total:
COc1cc2ncnc(Nc3ccc(C)c(O)c3)c2cc1OC ... 2.06
NS(=O)(=O)c1ccc(-c2cc3ccncc3cc2OCc2ccccc2)cc1 ... 1.52
Nc1ccc(C#Cc2cncnc2Nc2ccc(OCc3cccc(F)c3)c(Cl)c2)cc1 ... 1.72
COc1cccc(-n2nc(C)c3c(N/N=C(\C)c4ccncc4)ncnc32)c1 ... -1.17
CCOc1nccc2c1nc(-c1nonc1N)n2CC ... 2.76

Proceeding to the next molecule to report its inhibition.
Per the record, CN(C)c1cc2c(Nc3ccc4c(cnn4Cc4ccccc4)c3)ncnc2cn1 has inhibition of 0.84
